target_or_test_system: T1, pig CD47 (pig, UniProt Q9GKE8 19-303)
T1 construct: whole, on cells; also called CD47 on porcine RBCs
T1 sequence (looked up): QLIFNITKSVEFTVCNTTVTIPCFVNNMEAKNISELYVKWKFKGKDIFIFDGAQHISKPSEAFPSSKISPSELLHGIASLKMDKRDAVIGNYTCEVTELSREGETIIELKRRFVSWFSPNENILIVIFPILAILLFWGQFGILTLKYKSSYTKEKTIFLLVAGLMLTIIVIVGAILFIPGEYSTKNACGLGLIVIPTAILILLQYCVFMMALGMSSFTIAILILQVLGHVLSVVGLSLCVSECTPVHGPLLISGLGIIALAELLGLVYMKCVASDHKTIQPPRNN
protocol_details: flow cytometry on RBCs, CHO supernatant 10 ng/ml
Protocol: RBCs are incubated for 60 minutes on ice with tissue culture supernatants containing the secreted humanized antibodies at a concentration of 10 ng/ml in a solution of phosphate buffered saline, pH 7.2, 2.5 mM EDTA (PBS+E), or with various concentrations of purified antibodies. […] Antibody binding is quantitated by comparison of mean fluorescence values relative to that of chimeric antibody >VxP037-01LC (SEQ ID NO:7))/>VxPO37-01HC (SEQ ID NO:57). […]
Measured mean fluorescence relative to chimeric antibody by item
quantity: mean fluorescence relative to chimeric antibody (ratio)

1) Clone 18 (pVxK7b-037-hum18-LC / pVxK7b-037-hum18-HC) (antibody, human IgG1, kappa, V domains shown) VH: EVQLVQSGAEVKKPGESLRISCKGSGYTFTNYYVFWIRQSPSRGLEWLGDINPVNGDTNFNEKFKNRVTITADKSTSTAYMELSSLRSEDTAVYYCARGGYTMDYWGQGTLVTVSS VL: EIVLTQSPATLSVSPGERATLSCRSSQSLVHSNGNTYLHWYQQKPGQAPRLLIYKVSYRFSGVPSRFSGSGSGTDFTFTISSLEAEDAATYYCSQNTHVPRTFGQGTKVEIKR; 1.2
2) Clone 22 (pVxK7b-037-hum22-LC / pVxK7b-037-hum22-HC) (antibody, human IgG1, kappa, V domains shown) VH: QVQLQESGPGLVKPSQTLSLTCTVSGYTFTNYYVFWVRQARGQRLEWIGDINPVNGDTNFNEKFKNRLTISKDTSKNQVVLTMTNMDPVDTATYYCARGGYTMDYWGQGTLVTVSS VL: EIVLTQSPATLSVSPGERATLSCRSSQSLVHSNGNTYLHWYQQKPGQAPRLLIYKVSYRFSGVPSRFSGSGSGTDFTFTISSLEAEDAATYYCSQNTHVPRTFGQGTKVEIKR; 1.4
3) Clone 10 (pVxK7b-037-hum10-LC / pVxK7b-037-hum10-HC) (antibody, human IgG1, kappa, V domains shown) VH: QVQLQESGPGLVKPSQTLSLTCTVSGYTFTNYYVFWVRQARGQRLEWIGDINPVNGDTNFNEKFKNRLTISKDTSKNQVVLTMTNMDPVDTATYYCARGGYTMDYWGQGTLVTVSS VL: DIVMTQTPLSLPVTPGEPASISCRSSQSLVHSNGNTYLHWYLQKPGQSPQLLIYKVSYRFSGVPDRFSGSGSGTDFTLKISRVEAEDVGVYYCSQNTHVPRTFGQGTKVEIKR; 1.5
